# TEST TARGET: His-tagged FOLR1 human recombinant protein (11241-H08H, SinoBiological) (human) (UniProt P15328)
# PROCEDURE TEXT: ELISA, linker screen
pEC50: −log10 of the molar value. Positions of bridges follow the written chain, without caps; N, C: chain ends. Non-standard residues stand in square brackets, D forms with d. Primed or numbered codes have the meaning given here. No end group written: not given here. *: point of attachment. Biotin = O=C1N[C@H]2[C@H](CS[C@H]2CCCCC(=O)*)N1; Lys(N3) = [N-]=[N+]=NCCCC[C@H](N)C(=O)O; PEG10′ = PEG spacer, 10 units; PEG7′ = PEG linker, 7 units; Pra = C#CC[C@H](N)C(=O)O
pEC50 reference
READOUT TYPE: pEC50

[Pra][dD][dE][dR][dY][dT][Lys(N3)] (triazole N-C; also: conjugated to folate, attachment not said) [folate-deryt (SEQ ID NO:20) heterobiligand (construct not specified)]    9.55
Fol-[dH][dS][dH][dT][dA][PEG10′][PEG10′]K(Biotin) (not fully specified (bridges); printed as folate-hshta) [folate-hshta (SEQ ID NO:6) NTerm heterobiligand, Folate-hshta-PEG10-PEG10-K(Biotin)]    9.74
Fol-P[dH][dS][dH][dT][dA] (not fully specified (residue 1, C-terminus, bridges)) [Folate-Pro-hshta heterobiligand]    9.05
Fol-G[dH][dS][dH][dT][dA] (not fully specified (residue 1, C-terminus, bridges)) [Folate-Gly-hshta heterobiligand]    9.05
{Fol-PEG7′}-[dH][dS][dH][dT][dA] (also: triazole macrocycle (Pra/Az4 click), ends not placed) [Folate-PEG7-hshta heterobiligand]    9.00

meta.source: patent US20240180856A1
